Source listed as ChEMBL document CHEMBL3137667.

Test: Highest frequency of moderate liver toxicity observed during clinical trials, expressed as a percentage. [column '% BIOL' in source]
Conditions: human, Liver
Each entry below carries its recorded Hepatotoxicity (moderate).

Example entries begin here.
# compound, Hepatotoxicity (moderate)
measured = [
    ("CCc1cc(C(N)=S)ccn1 [ETHIONAMIDE]", "37%"),
    ("CCCN[C@H]1CCc2nc(N)sc2C1 [PRAMIPEXOLE]", "7.1%"),
    ("CN(C)CCCN1c2ccccc2Sc2ccc(Cl)cc21 [CHLORPROMAZINE]", "42%"),
]

Request the reported Hepatotoxicity (moderate) associated with O=C1CN(/N=C/c2ccc([N+](=O)[O-])o2)C(=O)N1 [NITROFURANTOIN] 0%

Entry O=C(OCC(O)CO)c1ccccc1Nc1ccnc2cc(Cl)ccc12 (stereo not given) [GLAFENINE] please 0%

Item: O=C(O)COc1ccc(C(=O)c2cccs2)c(Cl)c1Cl 7%

Follow-up item: Cc1ccc(C(=O)c2ccc(CC(=O)O)n2C)cc1 [TOLMETIN] 14.6%

Do the same for CC[C@H](C)C(=O)O[C@H]1C[C@H](O)C=C2C=C[C@H](C)[C@H](CC[C@@H](O)C[C@@H](O)CC(=O)O)[C@H]21 [PRAVASTATIN] please 22.5%

// next record COc1c2occc2cc2ccc(=O)oc12 [METHOXSALEN] 0%

Same question for C[C@H]1[C@H](NC(=O)/C(=N\OC(C)(C)C(=O)O)c2csc(N)n2)C(=O)N1S(=O)(=O)O [AZTREONAM] please. 60%

----------
Assay: Proposed mechanism(s) of liver damage. [column 'MEC' in source]
Conditions: human
property: Hepatotoxicity (mechanism)

# molecule, result
records = [
    ("Cc1ccc(S(=O)(=O)NC(=O)NC2CCCCC2)cc1N [METAHEXAMIDE]", "Dose-dependant"),
    ("C#C[C@]1(O)CC[C@H]2[C@@H]3CCC4=Cc5oncc5C[C@]4(C)[C@H]3CC[C@@]21C", "Dose-dependant"),
    ("CCC(=O)O[C@](Cc1ccccc1)(c1ccccc1)[C@H](C)CN(C)C", "Allergic, Dose-dependant"),
    ("CCN(CC)CC[n+]1ccc2c(C)c3[nH]c4ccc(O)cc4c3c(C)c2c1.[Cl-] [DATELLIPTIUM CHLORIDE]", "Dose-dependant"),
    ("C=C[C@H]1C[N@@]2CC[C@H]1C[C@H]2[C@H](O)c1ccnc2ccc(OC)cc12", "Allergic"),
]

Given the molecule CC(=O)c1ccc(S(=O)(=O)NC(=O)NC2CCCCC2)cc1 [ACETOHEXAMIDE] , what is its reported Hepatotoxicity (mechanism)? Dose-dependant

Similarly, CC(C(=O)O)c1ccc2c(c1)[nH]c1ccc(Cl)cc12 (configuration not stated) ? Dose-dependant

----------
Conditions: human
Below: a set of entries, each annotated with reported Hepatotoxicity (severe hepatitis).
// return a plain number; no unit text

Previously resolved entries follow.
# compound, numeric.result
rows = [
    ("Cc1cccc(Nc2ccncc2S(=O)(=O)NC(=O)NC(C)C)c1 [TORSEMIDE]", 0),
    ("COCCOC(=O)C1=C(C)NC(C)=C(C(=O)OC(C)C)C1c1cccc([N+](=O)[O-])c1 (stereo not given)", 0),
]

Please give the measured Hepatotoxicity (severe hepatitis) for this compound: COc1cc(NC(C)CCCN)c2ncccc2c1 (stereo not given) 0

Please do the same for O=C(COCCOCCOCC(=O)Nc1c(I)cc(I)c(C(=O)O)c1I)Nc1c(I)cc(I)c(C(=O)O)c1I as well. 0
